System: THP-1 cells
Test: Monocyte-to-macrophage differentiation assay, M1 polarisation (PMA then LPS)
Format: cell-based, human
Details: Homo sapiens, THP-1; 6 h pre-incubation; PMA 25 nM 24 h then LPS 100 ng/ml 72 h; MTS; read-out: IC50 inhibition of THP-1 monocyte differentiation into M1 macrophages
Item-by-item account of IC50
The figure you give is taken to be in µM; do not add the unit.

molecule	readout.number
O=C(O)Cc1ccccc1Nc1c(Cl)cccc1Cl [Diclofenac Na, Diclofenac sodium, reference compound]	101

Input: If you can, please state the reported IC50 value of O=C1N=C(N2CCOCC2)S/C1=C\c1cn(-c2ccccc2)nc1-c1ccccc1 .
Output: 11.3

Input: // query IC50 value for entry COc1ccc(-c2nn(-c3ccccc3)cc2/C=C2\SC(N3CCOCC3)=NC2=O)cc1
Output: 347

Input: I am curious: what IC50 value has been reported for COc1ccc(-c2nn(-c3ccccc3)cc2/C=C2\SC(N3CCCCC3)=NC2=O)cc1 ?
Output: 15
